Hi, quick share: literature pKi data for D(2) dopamine receptor (Rattus norvegicus, UniProt P61169), several sources combined.
Answer as the number alone; pKi is minus log10 of concentration in mol/L.

Request: Give the reported pKi for this compound. CN1CCc2cc(Cl)c(O)cc2[C@@H]1c1ccccc1
Response: 5.73

Request: Give the reported pKi for this compound. Cc1cc(OCCCCN2CCC(c3noc4cc(F)ccc34)CC2)cc2oc(=O)cc(C)c12
Response: 6.34

Request: Give the reported pKi for this compound. O=C1CCc2cc(CCCCN3CCC(c4noc5cc(F)ccc45)CC3)cc3c2N1CC3
Response: 8.00

Request: Give the reported pKi for this compound. CCCN(CCN1CCN(c2ccccc2)CC1)C1CCc2nnsc2C1 (centres undefined)
Response: 6.13

Request: Give the reported pKi for this compound. O=C(CCCN1CC[C@H]2[C@@H](C1)c1cccc3c1N2CCN3)c1ccc(F)cc1
Response: 7.52

Request: Give the reported pKi for this compound. CCCN(CCN1CCN(c2ccc(-c3ccccc3)cc2O)CC1)C1CCc2nc(N)sc2C1 (racemic)
Response: 7.15

Request: Give the reported pKi for this compound. CCCN(CCN1CCN(C(=O)c2cc3ccccc3[nH]2)CC1)C1CCc2nc(N)sc2C1 (racemic)
Response: 6.07

Request: Give the reported pKi for this compound. O=C(CCCCN1CCC(c2noc3cc(F)ccc23)CC1)c1cc2c3c(c1)CCC(=O)N3CCC2
Response: 7.50

Request: Give the reported pKi for this compound. CCCN(CCN1CCN(c2ccnc3ccccc23)CC1)C1CCc2ccc(O)cc2C1 (centres undefined)
Response: 8.15

Request: Give the reported pKi for this compound. Oc1ccc2c(c1)C[C@H]1[C@@H](CCCN1CCN1CCN(c3cccc(Cl)c3Cl)CC1)C2 (racemic)
Response: 6.47

Continuing:
Request: Give the reported pKi for this compound. CN1CCN2c3c(cccc31)[C@@H]1CN(CCNC(=O)c3ccc(F)cc3)CC[C@@H]12
Response: 6.12

Request: Give the reported pKi for this compound. Oc1ccc2c(c1)C[C@@H]1[C@@H](CCCN1CCN1CCN(c3cccc(Cl)c3Cl)CC1)C2 (racemic)
Response: 6.83

----------
Hi, quick share: literature pKi data for UniProtKB P61169, several sources combined.
Answer as the number alone; pKi is minus log10 of concentration in mol/L.

Worked cases, pKi given:
Request: Report the value of pKi obtained on UniProtKB P61169 for CCCN(CCCCN(CCC)[C@H]1CCc2c(O)cccc2C1)[C@H]1CCc2c(O)cccc2C1 .
Response: 7.15

Request: Report the value of pKi obtained on UniProtKB P61169 for Cc1cccc(N2CCN(CCC(=O)c3cc4c5c(c3)CCN5C(=O)CC4)CC2)c1C .
Response: 6.72

Request: Report the value of pKi obtained on UniProtKB P61169 for O=C(CCN1CCC(c2nc3ccccc3s2)CC1)c1cc2c3c(c1)CCC(=O)N3CCC2 .
Response: 6.06

Continuing:
Request: Report the value of pKi obtained on UniProtKB P61169 for CCCN(CCN1CCN(c2ccc3[nH]ccc3c2)CC1)C1CCc2nc(N)sc2C1 (racemic) .
Response: 7.33

----------
Hi, quick share: literature pKi data for D(2) dopamine receptor (Rattus norvegicus, UniProt P61169), several sources combined.
Answer as the number alone; pKi is minus log10 of concentration in mol/L.

Request: Report the value of pKi obtained on D(2) dopamine receptor (Rattus norvegicus, UniProt P61169) for O=C(CCCN1CC[C@H]2[C@@H](C1)c1cccc3c1N2CCS3)c1ccc(F)cc1 .
Sequence (P61169 whole entry): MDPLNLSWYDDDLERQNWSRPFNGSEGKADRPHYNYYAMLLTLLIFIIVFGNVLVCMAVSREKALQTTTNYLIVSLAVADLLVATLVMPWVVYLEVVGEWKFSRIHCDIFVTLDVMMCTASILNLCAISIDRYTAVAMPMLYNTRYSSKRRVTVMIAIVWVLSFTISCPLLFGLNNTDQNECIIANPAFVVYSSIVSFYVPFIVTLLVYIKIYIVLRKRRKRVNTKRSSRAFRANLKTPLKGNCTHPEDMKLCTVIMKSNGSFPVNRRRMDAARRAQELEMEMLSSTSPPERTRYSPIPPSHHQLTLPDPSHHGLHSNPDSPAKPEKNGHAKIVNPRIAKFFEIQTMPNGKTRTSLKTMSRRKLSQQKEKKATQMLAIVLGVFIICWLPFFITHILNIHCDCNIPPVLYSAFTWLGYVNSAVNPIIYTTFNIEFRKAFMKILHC
Response: 7.30

Request: Report the value of pKi obtained on D(2) dopamine receptor (Rattus norvegicus, UniProt P61169) for O=C(CCCN1CCN(c2nsc3ccccc23)CC1)c1cc2c3c(c1)CCN3C(=O)CC2 .
Response: 7.30

Turning now to a further record.
Request: Report the value of pKi obtained on D(2) dopamine receptor (Rattus norvegicus, UniProt P61169) for CN1COc2ccc(OCCCN3CCC(c4noc5cc(F)ccc45)CC3)cc2C1=O .
Response: 6.16

----------
Hi, quick share: literature Ki data for UniProtKB P61169, several sources combined.

Worked cases, Ki given:
Request: Report the value of Ki obtained on UniProtKB P61169 for CCCN(CCN1CCN(c2ccccc2OC)CC1)C1CCc2nc(N)sc2C1 (stereo in doubt; 6b) .
Response: 166 nM

Request: Report the value of Ki obtained on UniProtKB P61169 for O=C(NCCCCN1CCN(c2cccc(Cl)c2Cl)CC1)c1ccc2c(c1)Cc1ccccc1-2 .
Response: 911 nM

Continuing:
Request: Report the value of Ki obtained on UniProtKB P61169 for CN1CCc2cc(Cl)c(O)cc2C1Cc1ccccc1 (racemic) .
Response: 287 nM

Request: Report the value of Ki obtained on UniProtKB P61169 for CCCN(CCN1CCN(C(=O)c2c[nH]c3ccccc23)CC1)[C@H]1CCc2nc(N)sc2C1 .
Response: 902 nM

Request: Report the value of Ki obtained on UniProtKB P61169 for CCCN(CCN1CCN(c2ccccc2)CC1)C1CCc2ccc(NS(=O)(=O)c3ccc(OC)cc3)cc2C1 (racemic) .
Response: 64.9 nM

Request: Report the value of Ki obtained on UniProtKB P61169 for CCCN(CCN1CCN(c2ccccc2)CC1)[C@H]1CCc2nc(N)sc2C1 .
Response: 243 nM

Request: Report the value of Ki obtained on UniProtKB P61169 for Cc1cc(=O)oc2cc(OCCCCCN3CCC(c4noc5cc(F)ccc45)CC3)ccc12 .
Response: 123 nM

Request: Report the value of Ki obtained on UniProtKB P61169 for CCCN(CCN1CCN(c2ccccc2OC)CC1)C1CCc2cc3[nH]cnc3cc2C1 (configuration not stated) .
Response: 443 nM

----------
Hi, quick share: literature Ki data for D(2) dopamine receptor (Rattus norvegicus, UniProt P61169), several sources combined.
Field format: number, assumed nM, no unit text.

Request: Give the reported Ki for this compound. CCCN(CCCCN1CCN(c2ccc(-c3cccc(O)c3)cc2)CC1)C1CCc2nc(N)sc2C1 (racemic)
Response: 567

Request: Give the reported Ki for this compound. Oc1cccc2c1C[C@@H]1CCCN(CCN3CCN(c4ccccc4)CC3)[C@H]1C2 (racemic)
Response: 1710

Request: Give the reported Ki for this compound. O=C1c2ccccc2S(=O)(=O)N1CCCCN1CCN(c2cccc(C(F)(F)F)c2)CC1
Response: 2250

Request: Give the reported Ki for this compound. O=C(CCN1CCN(c2ccccn2)CC1)c1cc2c3c(c1)CCC(=O)N3CCC2
Response: 1660

Request: Give the reported Ki for this compound. CN1CCN2c3c(cccc31)[C@@H]1CCN(CCCC(=O)c3ccc(F)cc3)CC[C@@H]12
Response: 148

Request: Give the reported Ki for this compound. CCCN(CCN1CCN(Cc2c[nH]c3ccc(OC)cc23)CC1)C1CCc2nc(N)sc2C1 (racemic)
Response: 1640

Request: Give the reported Ki for this compound. O=C(NCCCCCN1CCN(c2cccc(Cl)c2Cl)CC1)c1cccc2c1-c1ccccc1C2=O
Response: 35.3

----------
Hi, quick share: literature pKi data for D(2) dopamine receptor (Rattus norvegicus), several sources combined.
Answer as the number alone; pKi is minus log10 of concentration in mol/L.

Worked cases, pKi given:
Request: Report the value of pKi obtained on D(2) dopamine receptor (Rattus norvegicus) for Cc1cccc(N2CCN(CCC(=O)c3cc4c5c(c3)CCC(=O)N5CCC4)CC2)c1C .
Response: 5.73

Request: Report the value of pKi obtained on D(2) dopamine receptor (Rattus norvegicus) for O=c1cc(-c2ccccc2)c2ccc(OCC(O)CN3CCC(c4noc5cc(F)ccc45)CC3)cc2o1 (centres undefined) .
Response: 6.01

Request: Report the value of pKi obtained on D(2) dopamine receptor (Rattus norvegicus) for CN1CCN2c3c(cccc31)[C@@H]1CN(CCCc3noc4cc(F)ccc34)CC[C@@H]12 .
Response: 6.72

Request: Report the value of pKi obtained on D(2) dopamine receptor (Rattus norvegicus) for CCCN(CCN1CCN(c2ccccc2)CC1)[C@@H]1CCc2ccc(NS(=O)(=O)c3ccc(OC)cc3)cc2C1 .
Response: 7.00

Request: Report the value of pKi obtained on D(2) dopamine receptor (Rattus norvegicus) for CCN1CCc2ccc(OCCCN3CCC(c4noc5cc(F)ccc45)CC3)cc2C1=O .
Response: 6.60

Request: Report the value of pKi obtained on D(2) dopamine receptor (Rattus norvegicus) for CCCN(CCN1CCN(c2ccccc2)CC1)[C@H]1CCc2c(cccc2OS(=O)(=O)c2ccc(C)cc2)C1 .
Response: 6.20

Turning now to a further record.
Request: Report the value of pKi obtained on D(2) dopamine receptor (Rattus norvegicus) for CCCN(CCN1CCN(c2ccc(-c3cccc(OC)c3)cc2)CC1)[C@H]1CCc2nc(N)sc2C1 .
Response: 6.46
